Property: protein stability index; scope: individual variants
B1: ANKRD40 (parent)
chain: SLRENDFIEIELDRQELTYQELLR

- Variants of: B1
- assay_text: protein stability index of a GFP-peptide fusion (GPS, HEK-293T) (PSI 1-6); higher = more stable;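 note: lentivirally expressed fusions sorted by FACS into six bins by GFP to DsRed ratio, PSI derived from sequencing read proportions per bin multiplied by bin number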
- reported_conditions: c terminus: a fixed tail appended
Field format: numeric only.

{"columns": ["mutant_code", "observable", "value_reported"],
 "data": [
  ["L17S", "protein stability index", 3.41]
]}

Prompt line: Return protein stability index (reported value) for this variant: `E16G`
Response line: 2.91

Prompt line: Return protein stability index (reported value) for this variant: `I10G`
Response line: 3.55

Prompt line: Return protein stability index (reported value) for this variant: `E9L`
Response line: 2.14

Prompt line: Return protein stability index (reported value) for this variant: `L17P`
Response line: 2.74

Prompt line: Return protein stability index (reported value) for this variant: `Y19R`
Response line: 4.13

Prompt line: Return protein stability index (reported value) for this variant: `N5K`
Response line: 2.88

Prompt line: Return protein stability index (reported value) for this variant: `L22A`
Response line: 3.8

Prompt line: Return protein stability index (reported value) for this variant: `E16L`
Response line: 2.99

Prompt line: Return protein stability index (reported value) for this variant: `E9Q`
Response line: 2.51

Prompt line: Return protein stability index (reported value) for this variant: `N5A`
Response line: 2.57

The reported measurements were obtained from the supplement of paper PMC10567573.
